- Assayed target: EML4-ALK G1202R transformed Ba/F3 cells (Homo sapiens, UniProt Q9HC35+Q9UM73, G1202R)
- Sequence (Q9UM73 1058-1620 G1202R limits assumed, one chain of several): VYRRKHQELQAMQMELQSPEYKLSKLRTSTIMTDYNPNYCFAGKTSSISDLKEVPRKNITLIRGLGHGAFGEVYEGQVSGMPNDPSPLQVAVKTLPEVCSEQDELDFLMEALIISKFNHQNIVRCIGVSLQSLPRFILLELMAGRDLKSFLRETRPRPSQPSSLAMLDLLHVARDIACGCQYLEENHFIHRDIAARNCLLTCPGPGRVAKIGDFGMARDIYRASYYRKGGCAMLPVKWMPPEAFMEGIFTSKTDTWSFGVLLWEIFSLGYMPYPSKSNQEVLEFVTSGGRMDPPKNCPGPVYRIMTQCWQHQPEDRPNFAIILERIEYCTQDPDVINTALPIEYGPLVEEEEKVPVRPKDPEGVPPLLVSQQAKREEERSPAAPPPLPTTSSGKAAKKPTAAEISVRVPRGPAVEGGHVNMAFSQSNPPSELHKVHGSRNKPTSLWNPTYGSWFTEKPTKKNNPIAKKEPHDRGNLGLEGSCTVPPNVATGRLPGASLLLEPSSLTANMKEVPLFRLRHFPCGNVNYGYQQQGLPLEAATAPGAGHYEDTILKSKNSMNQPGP
- Conditions: 1 µM, result in words
Observable: single point inhibition of the G1202R mutant

Solved entries:
[[record]]
compound_structure = "CCc1cc2c(cc1N1CCC(N(C)C)CC1)C(C)(C)c1[nH]c3cc(C#N)ccc3c1C2=O"
reported_result = "potent inhibition"

[[record]]
compound_structure = "CCc1cc2c(cc1-c1cnn(C(=O)N(C)C)c1)C(C)(C)c1[nH]c3cc(C#N)ccc3c1C2=O"
reported_result = "quite potent"

[[record]]
compound_structure = "CCc1cc2c(cc1[C@@H](O)CO)C(C)(C)c1[nH]c3cc(C#N)ccc3c1C2=O"
reported_result = "much less potent"

[[record]]
compound_structure = "CCc1cc2c(cc1-c1cn[nH]c1)C(C)(C)c1[nH]c3cc(C#N)ccc3c1C2=O"
reported_result = "quite potent"

[[record]]
compound_structure = "CCc1cc2c(cc1-c1cnn(C)c1)C(C)(C)c1[nH]c3cc(C#N)ccc3c1C2=O"
reported_result = "quite potent"


Exercise: Provide single point inhibition of the G1202R mutant value for the following compound: "CCc1cc2c(cc1N1CCN(C)CC1)C(C)(C)c1[nH]c3cc(C#N)ccc3c1C2=O"
Key: potent inhibition

Exercise: Provide single point inhibition of the G1202R mutant value for the following compound: "CCc1cc2c(cc1[C@H](O)CO)C(C)(C)c1[nH]c3cc(C#N)ccc3c1C2=O"
Key: much less potent

Exercise: Provide single point inhibition of the G1202R mutant value for the following compound: "CCc1cc2c(cc1-c1cc[nH]n1)C(C)(C)c1[nH]c3cc(C#N)ccc3c1C2=O"
Key: quite potent
